Tested on: Galium aparine (GALAP, cleaver)
assay_protocol: Post-emergence herbicidal evaluation
Assay type: in vivo
experimental_parameters: rate 0.100 kg/ha, 3 weeks after treatment
quantity_name: GALAP rating

In [3]: df
Out[3]:
                                   compound  quantity_name                          obs_value
0  Cc1cc(OCCSC(F)(F)F)nc(Oc2ccnc(C(F)(F)F)c2)c1 [Example 51]   GALAP rating              9 (9 - Complete kill)
1  Cc1cc(OCCCSC(F)(F)F)nc(Oc2cc(C(F)(F)F)nn2C)c1 [Example 4]   GALAP rating  8 (8 - Approaching complete kill)
2  Cc1cc(OCCSC(F)(F)F)nc(Oc2cc(C(F)(F)F)nn2C)c1 [Example 1]   GALAP rating            5 (5 - Definite injury)
3  Cc1cc(OCCC(Cl)SC(F)(F)F)nc(Oc2cc(C(F)(F)F)nn2C)c1 (stereo not shown) [Example 3]   GALAP rating  8 (8 - Approaching complete kill)
4  Cc1cc(OCC=C(Cl)SC(F)(F)F)nc(Oc2cc(C(F)(F)F)nn2C)c1 [Example 5]   GALAP rating  8 (8 - Approaching complete kill)
5  Cc1cc(OCCCSC(F)(F)F)nc(Oc2ccnc(C(F)(F)F)c2)c1 [Example 53]   GALAP rating              9 (9 - Complete kill)
6  Cc1cc(OCC=CSC(F)(F)F)nc(Oc2cc(C(F)(F)F)nn2C)c1 [Example 2]   GALAP rating     7 (7 - Good herbicidal effect)

---

The following compounds are listed with their measured IPOHE rating values.
Tested on: Ipomoea hederacea (IPOHE, morning glory)
assay_protocol: Pre-emergence herbicidal evaluation
Format: in vivo
experimental_parameters: rate 0.100 kg/ha, 3 weeks after treatment
quantity_name: IPOHE rating

>>> df
                                   compound                     target_or_test_system  quantity_name                          obs_value
0  Cc1cc(OCCSC(F)(F)F)nc(Oc2ccnc(C(F)(F)F)c2)c1 [Example 51]  Ipomoea hederacea (IPOHE, morning glory)   IPOHE rating              9 (9 - Complete kill)
1  Cc1cc(OCCSC(F)(F)F)nc(Oc2cc(C(F)(F)F)nn2C)c1 [Example 1]  Ipomoea hederacea (IPOHE, morning glory)   IPOHE rating              9 (9 - Complete kill)
2  Cc1cc(OCCCSC(F)(F)F)nc(Oc2ccnc(C(F)(F)F)c2)c1 [Example 53]  Ipomoea hederacea (IPOHE, morning glory)   IPOHE rating  8 (8 - Approaching complete kill)
3  Cc1cc(OCC=CSC(F)(F)F)nc(Oc2cc(C(F)(F)F)nn2C)c1 [Example 2]  Ipomoea hederacea (IPOHE, morning glory)   IPOHE rating            5 (5 - Definite injury)
4  Cc1cc(OCCCSC(F)(F)F)nc(Oc2cc(C(F)(F)F)nn2C)c1 [Example 4]  Ipomoea hederacea (IPOHE, morning glory)   IPOHE rating              9 (9 - Complete kill)
5  Cc1cc(OCC=C(Cl)SC(F)(F)F)nc(Oc2cc(C(F)(F)F)nn2C)c1 [Example 5]  Ipomoea hederacea (IPOHE, morning glory)   IPOHE rating              9 (9 - Complete kill)
6  Cc1cc(OCCC(Cl)SC(F)(F)F)nc(Oc2cc(C(F)(F)F)nn2C)c1 (stereo not shown) [Example 3]  Ipomoea hederacea (IPOHE, morning glory)   IPOHE rating              9 (9 - Complete kill)
